target.entity: CGRP1 receptor (CRLR/RAMP1 complex) of human neuroblastoma SK-N-MC cells (human, UniProt Q16602 23-461; O60894 27-148)
Sequence (Q16602 23-461, chain 1 of 2): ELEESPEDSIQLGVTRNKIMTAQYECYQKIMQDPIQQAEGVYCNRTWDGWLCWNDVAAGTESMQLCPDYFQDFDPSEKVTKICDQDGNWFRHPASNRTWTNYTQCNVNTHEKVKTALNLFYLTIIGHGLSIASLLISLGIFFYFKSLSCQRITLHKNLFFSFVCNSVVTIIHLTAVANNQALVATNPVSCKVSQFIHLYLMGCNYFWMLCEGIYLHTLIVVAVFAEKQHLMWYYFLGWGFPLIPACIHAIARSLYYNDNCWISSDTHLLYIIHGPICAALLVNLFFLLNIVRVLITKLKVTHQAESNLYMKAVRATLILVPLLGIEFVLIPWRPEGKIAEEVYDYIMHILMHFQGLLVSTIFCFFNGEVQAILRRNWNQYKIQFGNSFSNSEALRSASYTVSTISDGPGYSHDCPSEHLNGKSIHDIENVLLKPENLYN
Sequence (O60894 27-148, chain 2 of 2): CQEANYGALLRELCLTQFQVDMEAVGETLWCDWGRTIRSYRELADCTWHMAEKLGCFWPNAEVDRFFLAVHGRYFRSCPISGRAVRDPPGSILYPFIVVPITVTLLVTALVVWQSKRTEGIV
test.details: cell-based or functional assay
Reported values of IC50 for individual entries
Give the figure together with its unit, number first.

Example entries begin here.
Ac-WVTHRLAGLLSRSGGVKRNNFVPTDVGPFAF-NH2 (not fully specified (residue 17); printed as Ac-WVTHRLAGLLSRSGGVKRNNFVPTDVGPFAF-NH2) [SEQ ID NO 19] : 0.98 nM
Ac-WVTHRLAGLLSRSGGVCRNNFVPTDVGPFAF-NH2 [SEQ ID NO 10] : 0.36 nM
Ac-WVTHRLAGLLSRSGGVVRCNFVPTDVGPFAF-NH2 (not fully specified (residue 19); printed as Ac-WVTHRLAGLLSRSGGVVRCNFVPTDVGPFAF-NH2) [SEQ ID NO 17] : 1.9 nM
Ac-WVTHRLAGLLSRSGGVVKNNFVPTDVGPFAF-NH2 (not fully specified (residue 18); printed as Ac-WVTHRLAGLLSRSGGVVKNNFVPTDVGPFAF-NH2) [SEQ ID NO 13] : 2.15 nM
Ac-WVTHRLAGLLSRSGGVVCNNFVPTDVGPFAF-NH2 [SEQ ID NO 9] : 2.15 nM
Ac-WVTHRLAGLLSRSGGVVRKNFVPTDVGPFAF-NH2 [SEQ ID NO 7] : 0.13 nM
Ac-WVTHRLAGLLSRSGGVVRKNFVPTDVGPFAF-NH2 (not fully specified (residue 19); printed as Ac-WVTHRLAGLLSRSGGVVRKNFVPTDVGPFAF-NH2) [SEQ ID NO 16] : 0.39 nM
Ac-WVTHRLAGLLSRSGGVVRCNFVPTDVGPFAF-NH2 [SEQ ID NO 8] : 0.5 nM

Next binder, please.
In: Provide only the value of recorded IC50 for Ac-WVTHRLAGLLSRSGGVVKNNFVPTDVGPFAF-NH2 (not fully specified (residue 18); printed as Ac-WVTHRLAGLLSRSGGVVKNNFVPTDVGPFAF-NH2) [SEQ ID NO 12]
Out: 3.05 nM
